# System: HeLa Kyoto
# test summary: solubility change mitosis vs G1/S (difference of NP-40 vs SDS log2 ratios) (log2 ratio difference); higher = more soluble in mitosis
# maps each entry to its solubility change mitosis (log2)

- sequence: "MATGQKLMRAVRVFEFGGPEVLKLRSDIAVPIPKDHQVLIKVHACGVNPVETYIRSGTYSRKPLLPYTPGSDVAGVIEAVGDNASAFKKGDRVFTSSTISGGYAEYALAADHTVYKLPEKLDFKQGAAIGIPYFTAYRALIHSACVKAGESVLVHGASGGVGLAACQIARAYGLKILGTAGTEEGQKIVLQNGAHEVFNHREVNYIDKIKKYVGEKGIDIIIEMLANVNLSKDLSLLSHGGRVIVVGSRGTIEINPRDTMAKESSIIGVTLFSSTKEEFQQYAAALQAGMEIGWLKPVIGSQYPLEKVAEAHENIIHGSGATGKMILLL [CRYZ]"
  subject of test: "HeLa Kyoto"
  solubility change mitosis (log2): -0.187
- sequence: "MLGQQQQQLYSSAALLTGERSRLLTCYVQDYLECVESLPHDMQRNVSVLRELDNKYQETLKEIDDVYEKYKKEDDLNQKKRLQQLLQRALINSQELGDEKIQIVTQMLELVENRARQMELHSQCFQDPAESERASDKAKMDSSQPERSSRRPRRQRTSESRDLCHMANGIEDCDDQPPKEKKSKSAKKKKRSKAKQEREASPVEFAIDPNEPTYCLCNQVSYGEMIGCDNEQCPIEWFHFSCVSLTYKPKGKWYCPKCRGDNEKTMDKSTEKTKKDRRSR [ING2]"
  subject of test: "HeLa Kyoto"
  solubility change mitosis (log2): 0.625
- sequence: "MGKIALQLKATLENITNLRPVGEDFRWYLKMKCGNCGEISDKWQYIRLMDSVALKGGRGSASMVQKCKLCARENSIEILSSTIKPYNAEDNENFKTIVEFECRGLEPVDFQPQAGFAAEGVESGTAFSDINLQEKDWTDYDEKAQESVGIYEVTHQFVKC [C1ORF123]"
  subject of test: "HeLa Kyoto"
  solubility change mitosis (log2): -0.125

---

# Test system: HeLa Kyoto
# test summary: melting temperature (median over replicates), in situ; higher = more thermally stable
# condition summary: cell cycle stage: mitosis

- sequence: "MATGQKLMRAVRVFEFGGPEVLKLRSDIAVPIPKDHQVLIKVHACGVNPVETYIRSGTYSRKPLLPYTPGSDVAGVIEAVGDNASAFKKGDRVFTSSTISGGYAEYALAADHTVYKLPEKLDFKQGAAIGIPYFTAYRALIHSACVKAGESVLVHGASGGVGLAACQIARAYGLKILGTAGTEEGQKIVLQNGAHEVFNHREVNYIDKIKKYVGEKGIDIIIEMLANVNLSKDLSLLSHGGRVIVVGSRGTIEINPRDTMAKESSIIGVTLFSSTKEEFQQYAAALQAGMEIGWLKPVIGSQYPLEKVAEAHENIIHGSGATGKMILLL [CRYZ]"
  melting temperature: "55 °C"
- sequence: "MSVGFIGAGQLAFALAKGFTAAGVLAAHKIMASSPDMDLATVSALRKMGVKLTPHNKETVQHSDVLFLAVKPHIIPFILDEIGADIEDRHIVVSCAAGVTISSIEKKLSAFRPAPRVIRCMTNTPVVVREGATVYATGTHAQVEDGRLMEQLLSSVGFCTEVEEDLIDAVTGLSGSGPAYAFTALDALADGGVKMGLPRRLAVRLGAQALLGAAKMLLHSEQHPGQLKDNVSSPGGATIHALHVLESGGFRSLLINAVEASCIRTRELQSMADQEQVSPAAIKKTILDKVKLDSPAGTALSPSGHTKLLPRSLAPAGKD [PYCR1]"
  melting temperature: "53.7 °C"
- sequence: "MTLQWAAVATFLYAEIGLILIFCLPFIPPQRWQKIFSFNVWGKIATFWNKAFLTIIILLIVLFLDAVREVRKYSSVHTIEKSSTSRPDAYEHTQMKLFRSQRNLYISGFSLFFWLVLRRLVTLITQLAKELSNKGVLKTQAENTNKAAKKFMEENEKLKRILKSHGKDEECVLEAENKKLVEDQEKLKTELRKTSDALSKAQNDVMEMKMQSERLSKEYDQLLKEHSELQDRLERGNKKRL [BCAP29]"
  melting temperature: "52.6 °C"
- sequence: "MASTSRLDALPRVTCPNHPDAILVEDYRAGDMICPECGLVVGDRVIDVGSEWRTFSNDKATKDPSRVGDSQNPLLSDGDLSTMIGKGTGAASFDEFGNSKYQNRRTMSSSDRAMMNAFKEITTMADRINLPRNIVDRTNNLFKQVYEQKSLKGRANDAIASACLYIACRQEGVPRTFKEICAVSRISKKEIGRCFKLILKALETSVDLITTGDFMSRFCSNLCLPKQVQMAATHIARKAVELDLVPGRSPISVAAAAIYMASQASAEKRTQKEIGDIAGVADVTIRQSYRLIYPRAPDLFPTDFKFDTPVDKLPQL [GTF2B]"
  melting temperature: "49.4 °C"
- sequence: "MANEAYPCPCDIGHRLEYGGLGREVQVEHIKAYVTKSPVDAGKAVIVIQDIFGWQLPNTRYIADMISGNGYTTIVPDFFVGQEPWDPSGDWSIFPEWLKTRNAQKIDREISAILKYLKQQCHAQKIGIVGFCWGGTAVHHLMMKYSEFRAGVSVYGIVKDSEDIYNLKNPTLFIFAENDVVIPLKDVSLLTQKLKEHCKVEYQIKTFSGQTHGFVHRKREDCSPADKPYIDEARRNLIEWLNKYM [CMBL]"
  melting temperature: "52.8 °C"
- sequence: "MSVFGKLFGAGGGKAGKGGPTPQEAIQRLRDTEEMLSKKQEFLEKKIEQELTAAKKHGTKNKRAALQALKRKKRYEKQLAQIDGTLSTIEFQREALENANTNTEVLKNMGYAAKAMKAAHDNMDIDKVDELMQDIADQQELAEEISTAISKPVGFGEEFDEDELMAELEELEQEELDKNLLEISGPETVPLPNVPSIALPSKPAKKKEEEDDDMKELENWAGSM [CHMP4B]"
  melting temperature: "52.5 °C"
- sequence: "MAAIPPDSWQPPNVYLETSMGIIVLELYWKHAPKTCKNFAELARRGYYNGTKFHRIIKDFMIQGGDPTGTGRGGASIYGKQFEDELHPDLKFTGAGILAMANAGPDTNGSQFFVTLAPTQWLDGKHTIFGRVCQGIGMVNRVGMVETNSQDRPVDDVKIIKAYPSG [PPIL1]"
  melting temperature: "50.1 °C"
- sequence: "MVLLKEYRVILPVSVDEYQVGQLYSVAEASKNETGGGEGVEVLVNEPYEKDGEKGQYTHKIYHLQSKVPTFVRMLAPEGALNIHEKAWNAYPYCRTVITNEYMKEDFLIKIETWHKPDLGTQENVHKLEPEAWKHVEAVYIDIADRSQVLSKDYKAEEDPAKFKSIKTGRGPLGPNWKQELVNQKDCPYMCAYKLVTVKFKWWGLQNKVENFIHKQERRLFTNFHRQLFCWLDKWVDLTMDDIRRMEEETKRQLDEMRQKDPVKGMTADD [PITPNA]"
  melting temperature: "55.5 °C"
- sequence: "MDFENLFSKPPNPALGKTATDSDERIDDEIDTEVEETQEEKIKLECEQIPKKFRHSAISPKSSLHRKSRSKDYDVYSDNDICSQESEDNFAKELQQYIQAREMANAAQPEESTKKEGVKDTPQAAKQKNKNLKAGHKNGKQKKMKRKWPGPGNKGSNALLRNSGSQEEDGKPKEKQQHLSQAFINQHTVERKGKQICKYFLERKCIKGDQCKFDHDAEIEKKKEMCKFYVQGYCTRGENCLYLHNEYPCKFYHTGTKCYQGEYCKFSHAPLTPETQELLAKVLDTEKKSCK [ZC3H8]"
  melting temperature: "55.1 °C"
- sequence: "MSLRCGDAARTLGPRVFGRYFCSPVRPLSSLPDKKKELLQNGPDLQDFVSGDLADRSTWDEYKGNLKRQKGERLRLPPWLKTEIPMGKNYNKLKNTLRNLNLHTVCEEARCPNIGECWGGGEYATATATIMLMGDTCTRGCRFCSVKTARNPPPLDASEPYNTAKAIAEWGLDYVVLTSVDRDDMPDGGAEHIAKTVSYLKERNPKILVECLTPDFRGDLKAIEKVALSGLDVYAHNVETVPELQSKVRDPRANFDQSLRVLKHAKKVQPDVISKTSIMLGLGENDEQVYATMKALREADVDCLTLGQYMQPTRRHLKVEEYITPEKFKYWEKVGNELGFHYTASGPLVRSSYKAGEFFLKNLVAKRKTKDL [LIAS]"
  melting temperature: "53.4 °C"
